The reported numbers originate from patent US20200017496A1.

Test system: Morganella morganii (MMO) isolates
Test: MIC of compounds alone and combined with antibacterials, broth microdilution (CLSI)
Assay type: cell-based
Details: MMO UFR244; AF1 @ 4 μg/mL
Method: Method 2: MIC of Compounds Alone and Combined with Antibacterials Against Bacterial Isolates. Compounds of the present invention were assessed against genotyped bacterial strains (Table 3, 4) alone or in combination with an antibacterial (Table 2). […] The MIC of the compounds was defined as the lowest concentration of said compounds that prevented bacterial growth as read by visual inspection. […]

CHEMICAL_STRING	SYSTEM_NAME	MIC ATB in combination
CC(C)(O/N=C(\C(=O)N[C@@H]1C(=O)N2C(C(=O)[O-])=C(C[n+]3ccccc3)CS[C@H]12)c1csc(N)n1)C(=O)O	Morganella morganii (MMO) isolates	<=0.25 μg/mL
COCC1=C(C(=O)O)N2C(=O)[C@@H](NC(=O)/C(=N\OC)c3csc(N)n3)[C@H]2SC1	Morganella morganii (MMO) isolates	<=0.25 μg/mL
C=CC1=C(C(=O)O)N2C(=O)[C@@H](NC(=O)/C(=N\OCC(=O)O)c3csc(N)n3)[C@H]2SC1	Morganella morganii (MMO) isolates	<=0.25 μg/mL
